# study_system: 5-HT2A (Homo sapiens)
# Sequence (P28223 whole entry): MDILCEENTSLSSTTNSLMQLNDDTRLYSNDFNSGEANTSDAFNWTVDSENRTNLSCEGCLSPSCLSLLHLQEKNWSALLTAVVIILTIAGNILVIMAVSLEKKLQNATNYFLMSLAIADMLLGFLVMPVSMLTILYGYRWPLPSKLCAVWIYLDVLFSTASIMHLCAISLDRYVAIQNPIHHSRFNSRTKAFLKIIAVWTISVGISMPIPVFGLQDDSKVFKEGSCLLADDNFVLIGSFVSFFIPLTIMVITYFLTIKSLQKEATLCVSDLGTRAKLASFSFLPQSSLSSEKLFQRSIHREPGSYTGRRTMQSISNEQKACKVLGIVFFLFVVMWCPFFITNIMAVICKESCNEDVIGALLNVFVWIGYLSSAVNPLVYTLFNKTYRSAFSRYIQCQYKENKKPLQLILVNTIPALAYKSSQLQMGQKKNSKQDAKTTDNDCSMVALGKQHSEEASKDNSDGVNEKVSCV
# method_summary: Serotonin 5-HT2A in vitro cellular IPOne agonism assay (HTRF)
# Format: cell-based
# Set-up: host or cells: CHO-K1
outcome_measure: EC50

NC1Cc2cccc3ccn(c23)C1 (stereo not drawn) ... > 10 µM
NC1Cc2c(F)ccc3ccn(c23)C1 (stereo not drawn) ... > 10 µM
NC1Cc2c(Cl)ccc3ccn(c23)C1 (stereo not drawn) ... 1 to 10 µM
NC1Cc2cccc3[nH]cc(c23)C1 (stereo not drawn) [Compound 27, 1,3,4,5-tetrahydrobenzo[cd]indol-4-amine] ... 1 to 10 µM
CN(C)C1Cc2cccc3ccn(c23)C1 (single isomer, unassigned) ... > 10 µM
COc1cc2c3c(ccn3CC(N)C2)c1 (stereo not drawn) ... > 10 µM
NC1Cc2cc(F)cc3ccn(c23)C1 (stereo not drawn) ... > 10 µM
NC1Cc2cc(Cl)cc3ccn(c23)C1 (stereo not drawn) ... 1 to 10 µM

The compound CCN(CC)C1Cc2cccc3ccn(c23)C1 (stereo not drawn) showed EC50 equal to 0.101 to 1 µM
